TARGET SYSTEM: Broad substrate specificity ATP-binding cassette transporter ABCG2 (Homo sapiens)
Sequence (Q9UNQ0 whole entry): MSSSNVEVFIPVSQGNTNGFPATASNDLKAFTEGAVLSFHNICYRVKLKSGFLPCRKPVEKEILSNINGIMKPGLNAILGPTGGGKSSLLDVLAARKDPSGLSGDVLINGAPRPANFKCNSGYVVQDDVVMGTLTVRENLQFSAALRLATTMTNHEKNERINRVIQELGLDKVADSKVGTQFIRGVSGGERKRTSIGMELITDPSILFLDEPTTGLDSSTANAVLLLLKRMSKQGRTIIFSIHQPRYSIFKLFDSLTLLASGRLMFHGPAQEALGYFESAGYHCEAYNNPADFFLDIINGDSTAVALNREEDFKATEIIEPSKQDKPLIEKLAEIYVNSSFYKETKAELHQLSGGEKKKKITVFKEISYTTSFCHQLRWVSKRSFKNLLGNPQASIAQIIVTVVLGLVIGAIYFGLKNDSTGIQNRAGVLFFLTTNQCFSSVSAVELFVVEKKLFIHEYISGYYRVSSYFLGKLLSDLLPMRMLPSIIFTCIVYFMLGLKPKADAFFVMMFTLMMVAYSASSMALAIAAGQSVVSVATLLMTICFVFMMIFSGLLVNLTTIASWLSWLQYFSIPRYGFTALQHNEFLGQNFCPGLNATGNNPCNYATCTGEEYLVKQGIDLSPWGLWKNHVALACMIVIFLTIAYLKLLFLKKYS
EXPERIMENT DESCRIPTION: Inhibition of human BCRP pump mediated [3H]mitoxantrone transport in human Caco-2 cells
PROPERTY: pEC50
Please keep in mind that pEC50 is minus log10 of the molar concentration; only the number is needed.

IN: Give a short answer stating reported pEC50 for `COc1ccc(COc2ccccc2CCc2ccccc2)cc1OC` .
OUT: 4.24

IN: // fetch pEC50 given entry `COc1cccc(CCc2ccccc2NCc2cccc(OC)c2OC)c1`
OUT: 5.82

IN: Return pEC50 (reported value) for this compound: `COc1cccc(CCc2ccccc2OCc2ccc(OC)c(OC)c2)c1`
OUT: 3.82

IN: Item `COc1cccc(COc2ccccc2CCc2ccccc2)c1OC` : provide pEC50
OUT: 4.12

IN: Item `COc1cccc(CCc2ccccc2NCc2cccc(OC)c2)c1` : provide pEC50
OUT: 5.15

IN: Return reported pEC50. Input compound: `COc1cccc(CCc2ccccc2NCc2ccc(OC)c(OC)c2)c1`
OUT: 6.30

IN: Provide pEC50 value for the following compound: `COc1cccc(CCc2ccccc2OCc2cccc(OC)c2OC)c1`
OUT: 3.92

----------
I'd be grateful if you could share measured Ratio for these entries.
Test system: Caco-2
EXPERIMENT DESCRIPTION: Ratio of permeability from basolateral to apical side over apical to basolateral side in human Caco-2 cells
API note: the answer field is a bare number with no unit suffix.

IN: Note Ratio for the compound shown: `COc1ccccc1COc1ccccc1CCc1ccccc1`
OUT: 1.4

IN: Give recorded Ratio. `COc1cccc(CCc2ccccc2OCc2cccc(OC)c2)c1`
OUT: 13

IN: Return value of Ratio for input `COc1cccc(CCc2ccccc2OCc2ccncc2)c1` , no commentary.
OUT: 2.1

IN: Given `COc1cccc(CCc2ccccc2NCc2cc(OC)cc(OC)c2)c1` , respond with its Ratio.
OUT: 6.9

IN: Identify Ratio associated with the compound `COc1cccc(CCc2ccccc2NCc2cccc(OC)c2)c1`
OUT: 2.9

IN: Supply measured Ratio of `COc1ccc(COc2ccccc2CCc2ccccc2)cc1` in your reply.
OUT: 5.1

IN: Find the measured Ratio of `COc1ccc(COc2ccccc2CCc2cccc(OC)c2)cc1` and report it.
OUT: 7.6

IN: Provide measured Ratio value, entry: `COc1cccc(CCc2ccccc2OCc2cc(OC)cc(OC)c2)c1`
OUT: 6.7

IN: In one line, give reported Ratio of the entry `COc1ccc(COc2ccccc2CCc2ccccc2)cc1OC` .
OUT: 2.1

IN: Recall and state the measured Ratio for `COc1cccc(COc2ccccc2CCc2ccccc2)c1OC` .
OUT: 0.95

IN: Report measured Ratio; entry is `COc1cccc(CCc2ccccc2OCc2ccccc2OC)c1`
OUT: 8.7

IN: Give me measured Ratio, please, for this compound: `COc1cccc(CCc2ccccc2NCc2ccc(OC)c(OC)c2)c1`
OUT: 5.6

----------
System: Caco-2
EXPERIMENT DESCRIPTION: Ratio of permeability from basolateral to apical side over apical to basolateral side in human Caco-2 cells
PROPERTY: Ratio
In your answer, state the number alone without any accompanying words.

IN: Could you please provide reported Ratio for `c1ccc(CCc2ccccc2OCc2ccncc2)cc1` ? Thanks!
OUT: 1.3

IN: Give reported Ratio value for `COc1cccc(CCc2ccccc2NCc2cccc(OC)c2OC)c1`
OUT: 5.5

IN: Identify Ratio associated with the molecule `COc1cc(COc2ccccc2CCc2ccccc2)cc(OC)c1`
OUT: 5.7

IN: Give the reported value of Ratio for this record: `COc1cccc(CCc2ccccc2OCc2ccc(OC)c(OC)c2)c1`
OUT: 5.1

----------
TARGET SYSTEM: ATP-dependent translocase ABCB1 (Homo sapiens)
EXPERIMENT DESCRIPTION: Activation of human P-glycoprotein ATPase in Caco-2 cells assessed as ATP depletion at 100 uM
Assay type: cell-based
COND: caco-2, 100 µM
PROPERTY: Activity

These solved cases illustrate the format of a correct answer.
[
  {
    "LINE NOTATION": "c1ccc(CCc2ccccc2OCc2ccncc2)cc1",
    "OBSERVED VALUE": "Active"
  },
  {
    "LINE NOTATION": "COc1ccc(COc2ccccc2CCc2ccccc2)cc1OC",
    "OBSERVED VALUE": "Not Active"
  },
  {
    "LINE NOTATION": "c1ccc(CCc2ccccc2OCc2ccccn2)cc1",
    "OBSERVED VALUE": "Not Active"
  },
  {
    "LINE NOTATION": "COc1ccc(COc2ccccc2CCc2ccccc2)cc1",
    "OBSERVED VALUE": "Not Active"
  },
  {
    "LINE NOTATION": "COc1cccc(CCc2ccccc2OCc2cc(OC)cc(OC)c2)c1",
    "OBSERVED VALUE": "Not Active"
  }
]

IN: Let me know recorded Activity for `c1ccc(CCc2ccccc2OCc2cccnc2)cc1` , thanks.
OUT: Active

----------
EXPERIMENT DESCRIPTION: Cytotoxicity against human Adr cells assessed as LDH release upto 50 uM after 48 hrs
Format: cell-based
PROPERTY: Activity

[
  {
    "LINE NOTATION": "COc1cccc(CCc2ccccc2OCc2ccc(OC)c(OC)c2)c1",
    "OBSERVED VALUE": "Not Active"
  },
  {
    "LINE NOTATION": "COc1ccc(COc2ccccc2CCc2ccccc2)cc1OC",
    "OBSERVED VALUE": "10%"
  },
  {
    "LINE NOTATION": "COc1cccc(CCc2ccccc2NCc2cccc(OC)c2)c1",
    "OBSERVED VALUE": "10%"
  },
  {
    "LINE NOTATION": "COc1cccc(CCc2ccccc2NCc2cc(OC)cc(OC)c2)c1",
    "OBSERVED VALUE": "Not Active"
  }
]

IN: Report measured Activity; entry is `COc1cccc(CCc2ccccc2NCc2ccc(OC)c(OC)c2)c1`
OUT: Not Active

IN: Identify measured Activity associated with `COc1cccc(CCc2ccccc2OCc2cccc(OC)c2OC)c1`
OUT: Not Active

IN: Tell me its Activity given `COc1cccc(CCc2ccccc2NCc2cccc(OC)c2OC)c1` as the entry.
OUT: Not Active

IN: Give the reported Activity for this molecule. `COc1cccc(COc2ccccc2CCc2ccccc2)c1OC`
OUT: Not Active

----------
Assign EC50 to each entry below.
TARGET SYSTEM: ATP-dependent translocase ABCB1 (Homo sapiens)
EXPERIMENT DESCRIPTION: Inhibition of human P-glycoprotein mediated [3H]vinblastine transport in human Caco-2 cells
Numeric only. Scale: µM

IN: // Input: `COc1ccc(COc2ccccc2CCc2ccccc2)cc1OC` . Output its EC50 only.
OUT: 0.75

IN: Quote EC50 reported for `COc1cccc(CCc2ccccc2NCc2cccc(OC)c2)c1` please.
OUT: 0.48

IN: Name the recorded EC50 of the compound listed here: `COc1cccc(CCc2ccccc2NCc2cc(OC)cc(OC)c2)c1`
OUT: 0.9

IN: // Input: `c1ccc(CCc2ccccc2OCc2ccncc2)cc1` . Output its EC50 only.
OUT: 18

IN: Quick one: give measured EC50 for `COc1cc(COc2ccccc2CCc2ccccc2)cc(OC)c1`
OUT: 1.6

IN: Return the recorded EC50 value; entry: `COc1cccc(CCc2ccccc2OCc2ccccc2OC)c1`
OUT: 12

IN: Tell me EC50 reported for `COc1cccc(CCc2ccccc2NCc2cccc(OC)c2OC)c1`
OUT: 0.085

IN: Return value of EC50 for input `COc1cccc(CCc2ccccc2OCc2ccncc2)c1` , no commentary.
OUT: 0.85

IN: Using the record for `COc1ccc(COc2ccccc2CCc2ccccc2)cc1` , state its measured EC50.
OUT: 3.1

IN: Find the measured EC50 of `COc1cccc(CCc2ccccc2OCc2cc(OC)cc(OC)c2)c1` and report it.
OUT: 2.5

IN: Answer with reported EC50 of `COc1cccc(COc2ccccc2CCc2ccccc2)c1OC`
OUT: 0.8

IN: Identify EC50 associated with the compound `COc1cccc(CCc2ccccc2NCc2ccc(OC)c(OC)c2)c1`
OUT: 0.18

IN: Complete the entry with EC50 for `COc1ccccc1COc1ccccc1CCc1ccccc1`
OUT: 20

IN: Quick one: give measured EC50 for `COc1ccc(COc2ccccc2CCc2cccc(OC)c2)cc1`
OUT: 5.2

IN: Please give the documented EC50 of `COc1cccc(CCc2ccccc2OCc2ccc(OC)c(OC)c2)c1`
OUT: 0.65

----------
TARGET SYSTEM: ATP-dependent translocase ABCB1 (Homo sapiens, UniProt P08183)
Sequence (P08183 whole entry): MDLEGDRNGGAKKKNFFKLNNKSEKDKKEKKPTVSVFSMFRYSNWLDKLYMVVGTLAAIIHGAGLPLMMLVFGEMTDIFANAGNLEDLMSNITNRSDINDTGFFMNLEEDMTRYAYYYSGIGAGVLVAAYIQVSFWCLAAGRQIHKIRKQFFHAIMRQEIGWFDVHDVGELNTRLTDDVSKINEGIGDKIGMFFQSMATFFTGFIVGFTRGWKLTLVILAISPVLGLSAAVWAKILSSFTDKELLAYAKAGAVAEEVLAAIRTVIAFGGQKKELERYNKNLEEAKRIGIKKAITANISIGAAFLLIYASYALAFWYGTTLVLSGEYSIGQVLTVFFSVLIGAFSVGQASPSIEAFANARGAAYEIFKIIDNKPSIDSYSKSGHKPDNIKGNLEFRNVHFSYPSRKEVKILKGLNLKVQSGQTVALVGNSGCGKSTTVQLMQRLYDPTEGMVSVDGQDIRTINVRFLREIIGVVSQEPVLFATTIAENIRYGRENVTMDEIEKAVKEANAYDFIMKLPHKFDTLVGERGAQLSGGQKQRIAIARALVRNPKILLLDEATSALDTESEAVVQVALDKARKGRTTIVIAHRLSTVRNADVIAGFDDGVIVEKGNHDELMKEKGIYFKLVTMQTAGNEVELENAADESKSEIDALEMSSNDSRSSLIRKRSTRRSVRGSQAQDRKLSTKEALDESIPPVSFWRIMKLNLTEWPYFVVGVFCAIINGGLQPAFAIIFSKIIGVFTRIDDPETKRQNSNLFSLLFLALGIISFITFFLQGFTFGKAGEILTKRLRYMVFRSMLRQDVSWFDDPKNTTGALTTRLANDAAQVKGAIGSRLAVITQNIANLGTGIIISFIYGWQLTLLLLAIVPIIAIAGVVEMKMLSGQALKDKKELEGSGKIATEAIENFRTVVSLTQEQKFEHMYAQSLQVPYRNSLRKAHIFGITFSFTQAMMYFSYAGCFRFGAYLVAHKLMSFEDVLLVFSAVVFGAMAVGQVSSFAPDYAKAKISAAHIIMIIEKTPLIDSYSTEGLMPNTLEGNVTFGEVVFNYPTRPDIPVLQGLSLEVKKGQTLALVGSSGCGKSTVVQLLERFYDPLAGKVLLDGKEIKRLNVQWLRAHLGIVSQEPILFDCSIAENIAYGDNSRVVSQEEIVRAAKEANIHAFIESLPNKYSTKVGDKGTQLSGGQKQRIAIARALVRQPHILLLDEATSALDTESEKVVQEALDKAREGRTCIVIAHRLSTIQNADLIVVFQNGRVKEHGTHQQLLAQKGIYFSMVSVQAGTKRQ
EXPERIMENT DESCRIPTION: Activation of human P-glycoprotein ATPase in Caco-2 cells assessed as ATP depletion at 100 uM
Assay type: cell-based
COND: caco-2, 100 µM
PROPERTY: Activity

Below, 10 compounds whose answers are already recorded.
[
  {
    "LINE NOTATION": "COc1cccc(CCc2ccccc2OCc2cccc(OC)c2OC)c1",
    "Activity": "Active"
  },
  {
    "LINE NOTATION": "COc1cccc(CCc2ccccc2OCc2ccccc2OC)c1",
    "Activity": "Not Active"
  },
  {
    "LINE NOTATION": "COc1ccccc1COc1ccccc1CCc1ccccc1",
    "Activity": "Not Active"
  },
  {
    "LINE NOTATION": "COc1cccc(CCc2ccccc2NCc2ccc(OC)c(OC)c2)c1",
    "Activity": "Not Active"
  },
  {
    "LINE NOTATION": "COc1cccc(CCc2ccccc2OCc2ccncc2)c1",
    "Activity": "Active"
  },
  {
    "LINE NOTATION": "COc1cc2c(cc1OC)CN(CCc1ccc(NC(=O)c3cccc4c(=O)c5cccc(OC)c5[nH]c34)cc1)CC2",
    "Activity": "Not Active"
  },
  {
    "LINE NOTATION": "c1ccc(CCc2ccccc2OCc2ccccc2)cc1",
    "Activity": "Active"
  },
  {
    "LINE NOTATION": "COc1cccc(CCc2ccccc2NCc2cccc(OC)c2)c1",
    "Activity": "Not Active"
  },
  {
    "LINE NOTATION": "COc1cccc(CCc2ccccc2OCc2cccc(OC)c2)c1",
    "Activity": "Not Active"
  },
  {
    "LINE NOTATION": "COc1cccc(CCc2ccccc2OCc2ccccn2)c1",
    "Activity": "Not Active"
  }
]

IN: Recall and state the measured Activity for `COc1cccc(CCc2ccccc2NCc2cccc(OC)c2OC)c1` .
OUT: Not Active

IN: Retrieve Activity measured for `COc1cc(COc2ccccc2CCc2ccccc2)cc(OC)c1` and print it.
OUT: Not Active
